src = patent US12371454B2

For each of the compounds below, state its IC50.
Biological target: Kras and SOS1 (biotin-tagged human Kras loaded with GDP, His-tagged human SOS1) (Homo sapiens, UniProt P01116, G12D)
Construct: made in house; host or cells: E. coli (stated for Kras only)
Sequence (P01116 1-188 isoform P01116-2 G12D): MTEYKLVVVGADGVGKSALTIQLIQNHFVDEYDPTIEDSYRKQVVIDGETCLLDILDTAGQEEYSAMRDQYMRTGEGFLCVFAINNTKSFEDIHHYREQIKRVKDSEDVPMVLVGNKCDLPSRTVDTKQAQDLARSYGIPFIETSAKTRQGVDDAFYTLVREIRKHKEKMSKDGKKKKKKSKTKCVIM
Assay: Protein-protein interaction inhibition between Kras and SOS1 (KrasGl2D-SOS PPI) using AlphaScreen
Assay type: binding
Conditions: AlphaScreen; biotin-tagged human Kras loaded with GDP, His-tagged human SOS1; read-out: KRAS G12D-SOS PPI IC50
Starred links: 1 amine or outer side, 2 acyl side, 3 side chain; linkers in the order of their positions; H or OH if unused. Non-standard residues stand in square brackets, D forms with d. Residues, ends and D or L forms follow the SMILES beside them. hPhe(3-Cl-4-CF3) = N[C@@H](CCc1ccc(C(F)(F)F)c(Cl)c1)C(=O)O; NMePhe(4-CF3) = CN[C@@H](Cc1ccc(C(F)(F)F)cc1)C(=O)O; NMedβ3hAla = C[C@H](CC(=O)[*:2])N(C)[*:1]; Pro(4,4-F2) = O=C(O)[C@@H]1CC(F)(F)CN1; NMeCha = CN[C@@H](CC1CCCCC1)C(=O)O; NMeChg = CN[C@H](C(=O)O)C1CCCCC1; NMeL = CN[C@@H](CC(C)C)C(=O)O; NMeV = CN[C@H](C(=O)O)C(C)C; d(β3hA) = C[C@@H](N)CC(=O)O; Ac5c = NC1(C(=O)O)CCCC1; Ac4c = NC1(C(=O)O)CCC1; NBuGly = CCCCNCC(=O)O; Sar = CNCC(=O)O
Answer format: numeric, nM implied, no suffix.

Req: Can you look up the measured IC50 of CC[C@H](C)[C@@H]1NC(=O)[C@H](CC(C)C)N(C)C(=O)C[C@@H](C)N(C)C(=O)[C@H](C2CCCCC2)N(C)C(=O)C2(CCC2)NC(=O)[C@@H]2CC(F)(F)CN2C(=O)[C@H](CCc2ccc(C(F)(F)F)c(Cl)c2)NC(=O)CN(C)C(=O)[C@H](Cc2ccc(C(F)(F)F)cc2)N(C)C(=O)CN(C)C(=O)CN(C)C1=O [Compound 750] (cyclo([Ac4c][NMeChg][NMedβ3hAla][NMeL]I[Sar][Sar][NMePhe(4-CF3)][Sar][hPhe(3-Cl-4-CF3)][Pro(4,4-F2)])) for me?
Resp: 28

Req: Please look up its IC50: CCCCN1CC(=O)N(C)CC(=O)N(C)[C@@H](CC2CCCCC2)C(=O)N(C)CC(=O)N[C@@H](CCc2ccc(C(F)(F)F)c(Cl)c2)C(=O)N2CCC[C@H]2C(=O)NC2(CCCC2)C(=O)N(C)[C@@H](C(C)C)C(=O)N[C@H](C)CC(=O)N(C)[C@@H](CC(C)C)C(=O)N[C@@H]([C@@H](C)CC)C1=O [Compound 123] (cyclo([Ac5c][NMeV][d(β3hA)][NMeL]I[NBuGly][Sar][NMeCha][Sar][hPhe(3-Cl-4-CF3)]P))
Resp: 170
